Reference for the values: patent US20240409536A1

test system: MYB mRNA; assay: Splicing RT-qPCR assay, MYB canonical (CJ) and alternative (AJ) junction mRNA; format: cell-based; conditions: Homo sapiens, decrease in canonical junction mRNA, A673 or K562 cells, 24 hours
pIC50: −log10 of the molar value. Where a name gives a salt, the structure may show the parent alone.
// reported pIC50 for each item listed

The cases that follow already have their pIC50 on record.
> print(dat)
                                   compound  target.under.test        result
1  Cc1cn2cc(NCc3ccc(N4CCNCC4)c4ccnnc34)cc(F)c2n1 [Compound 230]           MYB mRNA        < 5.00
2  Cc1cn2cc(NC(=O)c3ccc(N4CCN[C@@H](C(C)C)C4)c4nccnc34)cc(F)c2n1 [Compound 250]           MYB mRNA  6.00 to 7.00
3  Cc1cn2nc(NC(=O)c3ccc(C4CCNCC4)c4ccnnc34)cc(C)c2n1 [Compound 113]           MYB mRNA  5.00 to 6.00
4  Cc1ccc2c(N3CCC(N(C)C)CC3)ccc(C(=O)Nc3cc(F)c4nc(C)cn4c3)c2n1 [Compound 215]           MYB mRNA  6.00 to 7.00

Recorded pIC50 of COc1cnc2c(N3CCC(N(C)C)CC3)ccc(C(=O)Nc3cc(F)c4nc(C)cn4c3)c2n1 [Compound 206, trifluoroacetic acid] , please.
6.00 to 7.00

Recorded pIC50 of Cc1cn2cc(NC(=O)c3ccc(N4C[C@H](C)N[C@@H](C)C4)c4cccnc34)cc(F)c2n1 [Compound 382] , please.
6.00 to 7.00

Recorded pIC50 of Cc1ccc2cc(NC(=O)c3ccc(N4C[C@@H](C)N[C@@H](C)C4)c4nccnc34)cc(F)c2n1 [Compound 353] , please.
< 5.00

Recorded pIC50 of Cc1cn2cc(NC(=O)c3ccc(N4C[C@@H](C)N[C@@H](C)C4)c4ncc(OC5CC5)nc34)cc(F)c2n1 [Compound 351] , please.
6.00 to 7.00

Recorded pIC50 of Cc1cn2cc(NC(=O)c3ccc(N4CCNC(C)(CO)C4)c4nccnc34)cc(F)c2n1 (stereo not drawn) [Compound 368] , please.
> 7.00

Recorded pIC50 of CCc1cc(NC(=O)c2ccc(N3CCNCC3)c3ccnnc23)nn2cc(C)nc12 [Compound 168, trifluoroacetic acid salt] , please.
5.00 to 6.00

Recorded pIC50 of Cc1cn2cc(NC(=O)c3ccc(N4CCN[C@@H](C)C4)c4ccnnc34)cc(F)c2n1 [Compound 147] , please.
> 7.00

Recorded pIC50 of Cc1cn2cc(NC(=O)c3ccc(N4C[C@@H](C)N[C@@H](C)C4)c4nccnc34)nc2c(C)n1 [Compound 359] , please.
6.00 to 7.00

Recorded pIC50 of CCC1CN(c2ccc(C(=O)Nc3cc(F)c4nc(C)cn4c3)c3nnccc23)CCN1 (stereo not drawn) [Compound 130] , please.
> 7.00

Recorded pIC50 of Cc1cn2cc(NC(=O)c3ccc(N4CCNC(C)(C)C4)c4nccnc34)cc(F)c2n1 [Compound 220] , please.
> 7.00

Recorded pIC50 of Cc1cn2cc(NC(=O)c3ccc(N4C[C@@H](C)N[C@@H](C)C4)c4ncc(O)nc34)cc(F)c2n1 [Compound 275] , please.
< 5.00

* * *

system: HiBiT-tagged HTT protein; test: HiBiT protein abundance assay, HTT (K562 HiBiT knock-in cells); format: cell-based, human; settings: 24 hours
Where a name gives a salt, the structure may show the parent alone.
// reported IC50 for each item listed

> print(dat)
                                   compound  readout            result
1  Cc1cn2cc(NC(=O)c3ccc(N4C[C@@H](C5CC5)N[C@@H](C)C4)c4nccnc34)cc(F)c2n1 [Compound 267]     IC50  1000 to 10000 nM

Recorded IC50 of Cc1cn2cc(NC(=O)c3ccc(N4CCNCC4)c4ccnnc34)cc(C)c2n1 [Compound 125] , please.
1000 to 10000 nM

Recorded IC50 of Cn1cc2ccc(NC(=O)c3ccc(N4CCNCC4)c4ccnnc34)cc2n1 [Compound 115] , please.
> 10000 nM

Recorded IC50 of Cc1cn2cc(NC(=O)c3ccc(N4CCNC(C)C4)c4ccnnc34)cc(F)c2n1 (stereo not drawn) [Compound 128] , please.
100 to 1000 nM

Recorded IC50 of CCN1CCN(c2ccc(C(=O)Nc3cc(F)c4nc(C)cn4c3)c3nccnc23)CC12CC2 [Compound 365] , please.
100 to 1000 nM

Recorded IC50 of CCOc1cnc2c(N3C[C@@H](C)N[C@@H](C)C3)ccc(C(=O)Nc3cc(F)c4nc(C)cn4c3)c2n1 [Compound 296] , please.
100 to 1000 nM

Recorded IC50 of CNC1CCN(c2ccc(C(=O)Nc3cc(F)c4nc(C)cn4c3)c3ncc(OC)nc23)C1 (stereo in doubt) [Compound 227, 2,2,2-trifluoroacetate] , please.
1000 to 10000 nM

Recorded IC50 of C[C@@H]1CN(c2ccc(C(=O)Nc3cc(F)c4nc(Cl)cn4c3)c3nccnc23)C[C@H](C)N1 [Compound 306] , please.
1000 to 10000 nM

Recorded IC50 of Cc1nc2c(F)cc(NC(=O)c3ccc(N4CCNCC4)c4ccnnc34)cc2o1 [Compound 117] , please.
100 to 1000 nM

Recorded IC50 of Cc1cn2cc(NC(=O)c3ccc(N4CCN[C@@H](C)C4)c4nccnc34)cc(F)c2n1 [Compound 187] , please.
1000 to 10000 nM

Recorded IC50 of Cc1cn2cc(NC(=O)c3ccc(N4C[C@H](C)NC5(CC5)C4)c4nccnc34)cc(F)c2n1 [Compound 377] , please.
1000 to 10000 nM

Recorded IC50 of COc1nc2c(F)cc(NC(=O)c3ccc(N4C[C@@H](C)N[C@@H](C)C4)c4nccnc34)cc2o1 [Compound 342] , please.
> 10000 nM

Recorded IC50 of Cc1cn2cc(NC(=O)c3ccc(N4C[C@@H](C)N[C@H](C)C4)c4nccnc34)cc(F)c2n1 [Compound 312] , please.
1000 to 10000 nM

Recorded IC50 of Cc1cn2cc(NC(=O)c3ccc(N4CCNCC4)c4ccnnc34)c(C)cc2n1 [Compound 119] , please.
1000 to 10000 nM

Recorded IC50 of CNC1CCN(c2ccc(C(=O)Nc3cc(F)c4nc(C)cn4c3)c3nccnc23)C1 (stereo not drawn) [Compound 190] , please.
1000 to 10000 nM

Recorded IC50 of CNCC1CCN(c2ccc(C(=O)Nc3cc(F)c4nc(C)cn4c3)c3nccnc23)CC1 [Compound 192, trifluoroacetate] , please.
1000 to 10000 nM

Recorded IC50 of COc1cnc2c(C(=O)Nc3cc(F)c4nc(C)cn4c3)ccc(N3CCC(N(C)C)CC3)c2n1 [Compound 224] , please.
> 10000 nM

Recorded IC50 of Cc1cn2cc(NC(=O)c3ccc(N4CC(C)NC(C)C4)c4nc(C)c(C)nc34)cc(F)c2n1 (stereo not drawn) [Compound 257] , please.
1000 to 10000 nM

* * *

test system: HiBiT-tagged HTT protein; experiment: HiBiT protein abundance assay, HTT (K562 HiBiT knock-in cells); format: cell-based, human; details: 24 hours
pIC50: −log10 of the molar value.
readout: pIC50

> print(dat)
                                   compound        result
1  Cc1cnc2c(C(=O)Nc3cc(F)c4nc(C)cn4c3)ccc(N3CCNCC3)c2n1 [Compound 198]  6.00 to 7.00
2  Cc1ccc2c(N3CCNCC3)ccc(C(=O)Nc3cc(F)c4nc(C)cn4c3)c2n1 [Compound 162]  6.00 to 7.00
3  Cc1cnc2c(N3CCNCC3)ccc(C(=O)Nc3cc(F)c4nc(C)cn4c3)c2n1 [Compound 197, trifluoroacetic acid]  6.00 to 7.00
4  Cc1cn2cc(NC(=O)c3ccc(N4CCC5(CCN5)C4)c4nccnc34)cc(F)c2n1 (centres unmarked) [Compound 339]  5.00 to 6.00
5  Cc1cn2cc(NC(=O)c3ccc(C4CCNC5(CC5)C4)c4nccnc34)cc(F)c2n1 (centres unmarked) [Compound 375]  5.00 to 6.00

Recorded pIC50 of Cc1cn2cc(NC(=O)c3ccc(C4CCNCC4)c4nccnc34)cc(F)c2n1 [Compound 371] , please.
6.00 to 7.00

Recorded pIC50 of Cc1cn2cc(NC(=O)c3ccc(N4CCNCC4)c4nncnc34)cc(F)c2n1 [Compound 345] , please.
5.00 to 6.00

Recorded pIC50 of Cc1cn2nc(NC(=O)c3ccc(N4CCNCC4)c4ccnnc34)cc2c(C)n1 [Compound 123] , please.
5.00 to 6.00
